# solubility kinetic annotations
- experimental parameters: buffer; pH 7.4; 200.0 µM
measured parameter: solubility kinetic

• CCOC(=O)c1sc(NC(=O)c2c(CC)noc2C)nc1C = > 48.5 µg/mL
• CC1(C)CC(=O)N(c2ccc(Cl)cc2Cl)C(=O)C1 = > 42.9 µg/mL
• CCC(C)(NC=O)C(=O)Nc1c(C)cccc1C (centres undefined) = > 37.2 µg/mL
• Cn1c(=O)c(C(=O)NC2CCCCCC2)c(O)c2ccccc21 = < 0.3 µg/mL

###

# solubility kinetic annotations
- experimental parameters: buffer; pH 7.4; 200.0 µM
measured parameter: solubility kinetic (µg/mL)

• O=C(/C=C/c1cccc(Br)c1)NCc1ccncc1 = 37.2
• COc1ccc(N2CCN(C(=O)c3cccc(S(=O)(=O)N4CCc5ccccc54)c3)CC2)cc1 = 7.1
• CC(C)c1nc(SCC(=O)NC2CCCCC2)c2ccccc2n1 = 1.8
• CC12CCC(C/C1=N\OC(=O)c1c(F)cccc1F)C2(C)C (stereo not given) = 21.5
• CCN(CC)CC#CC(OC)(c1ccccc1)c1ccccc1.Cl = 29.5
• Cc1ccc(NC(=O)c2ccc(F)cc2F)cc1NS(C)(=O)=O = 39.7
• N#Cc1ccsc1NC(=O)c1cccc([N+](=O)[O-])c1 = 4.2
• O=C(CN1C(=O)c2ccccc2S1(=O)=O)NCc1cccs1 = 22.2
• Cn1c(N)c(C(=O)COC(=O)CNC(=O)c2ccc(Cl)cc2Cl)c(=O)n(C)c1=O = 10.2
• CC(C)CNS(=O)(=O)c1ccc(CCC(=O)NCCc2ccccc2)cc1 = 16.3
• O=C(c1ccccc1)C(Nc1ccccn1)c1ccccc1 (stereo not given) = 27.8
• Cc1ccc(CN2CCCC(CO)(Cc3ccccc3C)C2)s1 (stereo not given) = 48.6
• CC(=O)Nc1cc[n+](CC(=O)c2cccc([N+](=O)[O-])c2)cc1.[Cl-] = 40.3
